biological target: HiBit-BRG1 fusion protein in stable HeLa cell line expressing HiBit-BRG1 and LgBit (Homo sapiens); construct: expressed in transfected cells; experiment: HiBiT-BRG1 cell-based degradation assay (Nano-Glo HiBiT, 24 h); conditions: HeLa HiBit-BRG1/LgBit cells, top dose 30 μM, read-out: BRG1 HiBit Degradation Maximum (%)
PROPERTY LABEL: Dmax

I'd like to know its Dmax. The compound in question is C#Cc1ccc(CNC(=O)[C@@H]2C[C@@H](O)CN2C(=O)[C@H](C(C)C)n2cc(N3CC4(CN(c5ccc6cc(-c7ccccc7O)nnc6c5)C4)C3)nn2)c(OCCCOC)c1
> 50%

Entry COc1cc2nnc(-c3ccccc3O)cc2cc1C1CN(c2ncc(-c3cc([C@H](C(=O)N4C[C@H](O)C[C@H]4C(=O)N[C@@H](C)c4ccc(-c5scnc5C)cc4)C(C)C)on3)cn2)C1 has what Dmax?
> 75%

I have this compound here, CC(C)[C@@H](C(=O)N1C[C@H](O)C[C@H]1C(=O)N[C@@H](C)c1ccc(F)cc1)c1cc(N2CC3(CC(c4cc5nnc(-c6ccccc6O)cc5cc4C#N)C3)C2)no1 , and I need its recorded Dmax.
> 50%

Given the entry Cc1ncsc1-c1ccc([C@H](C)NC(=O)[C@@H]2C[C@@H](O)CN2C(=O)[C@@H](c2cc(N3CC4(CN(Cc5ccc6cc(-c7ccccc7O)nnc6c5)C4)C3)no2)C(C)C)cc1 , report its measured Dmax.
< 50%

Give its Dmax value. Item: Cc1ncsc1-c1ccc([C@H](C)NC(=O)[C@@H]2C[C@@H](O)CN2C(=O)C(C(C)C)n2cc(N3CCC4(CCCN4c4ccc5cc(-c6ccccc6O)nnc5c4)C3)nn2)cc1 (some centres unmarked)
> 50%

----------
target: HiBit-BRG1 fusion protein in stable HeLa cell line expressing HiBit-BRG1 and LgBit (Homo sapiens, UniProt P51532); construct: expressed in transfected cells; assay: HiBiT-BRG1 cell-based degradation assay (Nano-Glo HiBiT, 24 h); conditions: HeLa HiBit-BRG1/LgBit cells, top dose 30 μM, read-out: BRG1 HiBit Degradation Maximum (%)
Sequence (P51532 whole entry, the tested form may be a part): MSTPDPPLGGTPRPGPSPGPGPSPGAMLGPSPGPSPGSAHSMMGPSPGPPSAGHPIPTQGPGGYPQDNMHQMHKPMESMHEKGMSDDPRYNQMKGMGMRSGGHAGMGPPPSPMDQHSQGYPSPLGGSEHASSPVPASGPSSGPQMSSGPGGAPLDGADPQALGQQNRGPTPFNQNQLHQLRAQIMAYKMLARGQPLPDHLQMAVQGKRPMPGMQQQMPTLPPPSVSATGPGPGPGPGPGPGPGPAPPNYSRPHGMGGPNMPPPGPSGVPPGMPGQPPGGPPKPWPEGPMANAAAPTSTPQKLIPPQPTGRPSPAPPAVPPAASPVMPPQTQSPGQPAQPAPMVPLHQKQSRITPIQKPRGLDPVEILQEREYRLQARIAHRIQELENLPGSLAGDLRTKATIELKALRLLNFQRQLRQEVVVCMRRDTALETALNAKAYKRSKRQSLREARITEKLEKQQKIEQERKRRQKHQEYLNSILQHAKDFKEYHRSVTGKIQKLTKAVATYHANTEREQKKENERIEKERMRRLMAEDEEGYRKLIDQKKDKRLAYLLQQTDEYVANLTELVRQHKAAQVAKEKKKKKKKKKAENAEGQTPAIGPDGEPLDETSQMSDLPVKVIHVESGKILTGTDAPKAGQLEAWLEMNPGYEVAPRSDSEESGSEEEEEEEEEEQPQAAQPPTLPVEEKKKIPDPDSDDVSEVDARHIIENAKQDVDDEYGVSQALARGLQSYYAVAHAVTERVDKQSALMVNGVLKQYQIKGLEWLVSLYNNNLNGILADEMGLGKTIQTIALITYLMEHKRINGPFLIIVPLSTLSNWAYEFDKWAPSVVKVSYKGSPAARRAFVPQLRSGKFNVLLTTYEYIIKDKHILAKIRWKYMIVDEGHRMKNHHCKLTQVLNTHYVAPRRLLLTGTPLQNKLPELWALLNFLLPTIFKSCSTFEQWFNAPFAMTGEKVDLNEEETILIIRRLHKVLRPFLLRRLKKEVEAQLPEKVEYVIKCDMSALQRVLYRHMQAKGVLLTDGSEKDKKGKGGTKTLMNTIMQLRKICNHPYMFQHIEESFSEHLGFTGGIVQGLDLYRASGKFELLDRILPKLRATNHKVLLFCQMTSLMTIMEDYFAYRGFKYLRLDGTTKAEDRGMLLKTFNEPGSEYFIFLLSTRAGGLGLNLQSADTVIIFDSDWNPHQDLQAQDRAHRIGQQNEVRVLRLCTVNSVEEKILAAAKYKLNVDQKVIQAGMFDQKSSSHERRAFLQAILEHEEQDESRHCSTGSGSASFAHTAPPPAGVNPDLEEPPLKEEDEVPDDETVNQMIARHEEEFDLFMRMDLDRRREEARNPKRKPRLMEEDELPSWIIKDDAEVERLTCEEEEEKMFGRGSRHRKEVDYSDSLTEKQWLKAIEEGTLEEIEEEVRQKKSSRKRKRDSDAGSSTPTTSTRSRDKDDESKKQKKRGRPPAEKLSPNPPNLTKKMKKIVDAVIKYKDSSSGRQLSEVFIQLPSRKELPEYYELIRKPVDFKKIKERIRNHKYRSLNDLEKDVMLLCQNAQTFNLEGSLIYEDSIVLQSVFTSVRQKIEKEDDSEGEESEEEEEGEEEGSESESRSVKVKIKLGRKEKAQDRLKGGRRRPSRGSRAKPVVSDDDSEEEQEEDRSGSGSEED
PROPERTY LABEL: Dmax

Recorded Dmax of Cc1ncsc1-c1ccc([C@H](C)NC(=O)[C@@H]2C[C@@H](O)CN2C(=O)[C@@H](c2cc(N3CCC4(CCN(c5ccc6cc(-c7ccccc7O)nnc6c5)C4)CC3)no2)C(C)C)cc1 [Compound 83] , please.
> 75%

Please give the measured Dmax for this compound: Cc1ncsc1-c1ccc([C@H](C)NC(=O)[C@@H]2C[C@@H](O)CN2C(=O)[C@@H](c2cc(N3CCC(c4ccc5cc(-c6ccccc6O)nnc5c4)CC3)no2)C(C)C)cc1 [Compound 74]
< 50%

Entry under review: Cc1ncsc1-c1ccc([C@H](C)NC(=O)[C@@H]2C[C@@H](O)CN2C(=O)[C@@H](c2cc(N3CCN([C@@H]4CCN(Cc5ccc6nnc(-c7ccccc7O)cc6c5)CC4(F)F)CC3)no2)C(C)C)cc1 [Compound 136] . Reported Dmax?
> 75%

Consider the compound Cc1ncsc1-c1ccc([C@H](C)NC(=O)[C@@H]2C[C@@H](O)CN2C(=O)[C@H](C(C)C)n2cc(C3CC4(CC(c5ccc6cc(-c7ccccc7O)nnc6c5)C4)C3)nn2)cc1 (some centres unmarked) [Compound 208] and give its measured Dmax.
> 75%

Looking for the measured Dmax of Cc1ncsc1-c1ccc([C@H](C)NC(=O)[C@@H]2C[C@@H](O)CN2C(=O)[C@@H](c2cc(N3CCC4(CC3)CN(c3ccc5nnc(-c6ccccc6O)cc5c3)CCN4C)no2)C(C)C)cc1 [Compound 165] , can you help?
> 75%
